- TESTED SYSTEM: Stromelysin-1 (Homo sapiens, UniProt P08254)
- Sequence (P08254 whole entry): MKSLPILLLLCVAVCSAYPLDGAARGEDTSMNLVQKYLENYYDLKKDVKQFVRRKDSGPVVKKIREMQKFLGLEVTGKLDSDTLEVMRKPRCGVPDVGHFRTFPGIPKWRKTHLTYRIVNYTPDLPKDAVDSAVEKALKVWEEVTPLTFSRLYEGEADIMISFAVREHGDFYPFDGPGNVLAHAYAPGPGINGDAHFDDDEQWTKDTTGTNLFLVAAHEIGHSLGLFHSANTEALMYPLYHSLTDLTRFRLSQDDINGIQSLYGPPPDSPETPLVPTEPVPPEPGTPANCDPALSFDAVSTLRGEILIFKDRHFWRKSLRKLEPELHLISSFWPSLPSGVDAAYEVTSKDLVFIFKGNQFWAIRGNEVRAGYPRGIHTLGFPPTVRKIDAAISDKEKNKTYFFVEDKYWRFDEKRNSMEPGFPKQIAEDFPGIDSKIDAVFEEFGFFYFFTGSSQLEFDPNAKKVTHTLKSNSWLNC
QUANTITY MEASURED: pIC50
Answers are plain numbers, as −log10 of the molar value.

Per the records, this compound ( CC(C)(C)[C@H](NC(=O)C(C[C@H]1CCc2ccccc2C1)[C@H](O)C(=O)NO)C(N)=O (stereo partly specified) ) has pIC50 equal to 6.64

* * *

Sequence of the target: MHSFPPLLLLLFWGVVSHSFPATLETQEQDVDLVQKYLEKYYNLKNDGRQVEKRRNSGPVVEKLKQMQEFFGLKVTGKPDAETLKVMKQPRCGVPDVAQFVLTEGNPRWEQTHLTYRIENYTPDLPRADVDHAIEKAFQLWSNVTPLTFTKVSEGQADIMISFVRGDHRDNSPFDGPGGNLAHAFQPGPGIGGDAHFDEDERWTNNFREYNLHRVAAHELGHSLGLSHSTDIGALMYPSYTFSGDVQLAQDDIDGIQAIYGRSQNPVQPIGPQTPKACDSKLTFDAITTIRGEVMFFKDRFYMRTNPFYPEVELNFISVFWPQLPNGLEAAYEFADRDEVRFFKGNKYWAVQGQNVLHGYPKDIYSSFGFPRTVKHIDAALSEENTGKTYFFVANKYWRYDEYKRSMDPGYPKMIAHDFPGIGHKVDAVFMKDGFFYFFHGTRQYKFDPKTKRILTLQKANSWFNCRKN
pIC50: −log10 of the molar value.
For each entry below, report its pIC50 value.

Worked cases, pIC50 given:
Value of pIC50 reported for the compound CC(C)(C)[C@H](NC(=O)C(C[C@H]1CCc2ccccc2C1)[C@H](O)C(=O)NO)C(N)=O (some centres undefined) is 6.10

# pIC50 of CNC(=O)[C@H](Cc1ccccc1)NC(=O)[C@H](Cc1cc2ccccc2o1)[C@H](O)C(=O)NO = > 7.00

The recorded pIC50 for CNC(=O)[C@H](Cc1ccccc1)NC(=O)C(Cc1ccc2ccccc2c1)C(O)C(=O)NO (single isomer, unassigned) is < 6.00

Sample NC(=O)[C@H](Cc1ccccc1)NC(=O)C(Cc1ccc2ccccc2c1)C(O)C(=O)NO (single isomer, unassigned) ; pIC50 observed: < 5.00

Sample CNC(=O)[C@@H](NC(=O)C(Cc1ccc2ccccc2c1)C(O)C(=O)NO)C(C)(C)C (single isomer, unassigned) ; pIC50 observed: < 6.00

The compound listed as CC(C)(C)[C@H](NC(=O)C(Cc1cnc2ccccc2c1)C(O)C(=O)NO)C(N)=O (single isomer, unassigned) shows pIC50 equal to 5.30

Notebook: CC(C)(C)[C@H](NC(=O)C(C[C@@H]1CCc2ccccc2C1)[C@H](O)C(=O)NO)C(N)=O (some centres undefined) , pIC50 read as 5.74

// field: pIC50; key: CC(C)(C)[C@H](NC(=O)C(Cc1ccc2ccccc2c1)C(O)C(=O)NO)C(N)=O (single isomer, unassigned) ; value = < 5.00

Turning to the following compound.
The reported value for NC(=O)[C@H](Cc1ccccc1)NC(=O)[C@H](Cc1ccc2cc(F)ccc2c1)[C@H](O)C(=O)NO in terms of pIC50 is < 5.00
